# ASSAY_SYSTEM: mGlu7 receptor (Homo sapiens)
# Construct: expressed in transfected cells
# Sequence (Q14831 35-915): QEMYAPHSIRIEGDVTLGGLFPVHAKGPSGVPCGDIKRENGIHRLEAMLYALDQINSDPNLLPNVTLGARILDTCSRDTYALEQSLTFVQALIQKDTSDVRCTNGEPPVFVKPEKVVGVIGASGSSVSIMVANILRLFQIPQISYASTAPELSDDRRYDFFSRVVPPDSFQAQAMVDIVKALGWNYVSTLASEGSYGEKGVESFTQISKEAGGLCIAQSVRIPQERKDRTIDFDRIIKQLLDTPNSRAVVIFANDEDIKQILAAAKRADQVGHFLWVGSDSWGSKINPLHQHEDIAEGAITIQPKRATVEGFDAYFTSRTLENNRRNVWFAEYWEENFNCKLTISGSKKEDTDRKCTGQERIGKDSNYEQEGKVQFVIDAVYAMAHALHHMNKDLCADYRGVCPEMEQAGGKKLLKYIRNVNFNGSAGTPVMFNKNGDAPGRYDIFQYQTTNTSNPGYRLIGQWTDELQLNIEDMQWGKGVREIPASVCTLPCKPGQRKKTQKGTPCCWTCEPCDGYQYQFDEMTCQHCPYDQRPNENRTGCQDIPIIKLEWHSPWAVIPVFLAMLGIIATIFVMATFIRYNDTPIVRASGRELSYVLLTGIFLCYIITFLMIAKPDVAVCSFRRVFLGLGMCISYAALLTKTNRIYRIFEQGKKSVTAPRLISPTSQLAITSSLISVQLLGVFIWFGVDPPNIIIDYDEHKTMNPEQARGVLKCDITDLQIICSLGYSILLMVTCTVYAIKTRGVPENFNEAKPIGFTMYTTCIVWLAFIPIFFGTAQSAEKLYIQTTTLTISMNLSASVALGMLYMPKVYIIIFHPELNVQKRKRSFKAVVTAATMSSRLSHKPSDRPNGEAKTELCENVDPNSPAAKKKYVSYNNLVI
# EXPERIMENT_NOTES: HTRF cAMP assay: potentiation of forskolin action without agonist (inverse agonist properties)
# Assay type: cell-based
# CONDITIONS_USED: T-REx 293 cells, 5 μM forskolin, n = 3, read-out: IC50, potentiation of forskolin action (elevating cAMP concentration), inverse agonist properties
PROPERTY_MEASURED: IC50 (nM)
Provide only the numeric value, understood in nM.

{"columns": ["COMPOUND", "IC50 (nM)"],
 "data": [
  ["CCc1nc2c(o1)CC(c1ccc(C)cc1C)CC2=O (centres unmarked)", 220]
]}

Next item in the queue.
Measured IC50, "COc1ccc(-c2cc3onc(-c4ccncc4)c3c(=O)n2C)cc1" : 340
